Answer each item with its documented Ratio IC50.
Test system: B16-F10
Test: Potency index, ratio of oleanolic acid IC50 to compound IC50 for mouse B16F10 cells
Assay type: functional
Give bare numbers.

# example entries with known answers
CC(=O)OC1CC[C@]2(C)[C@H]3CC=C4[C@@H]5CC(C)(C)CC[C@]5(C(=O)NCCCOCCOCCOCCCNC(=O)[C@]56CCC(C)(C)C[C@H]5C5=CC[C@@H]7[C@@]8(C)CC[C@H](OC(C)=O)C(C)(C)[C@@H]8CC[C@@]7(C)[C@]5(C)CC6)CC[C@@]4(C)[C@]3(C)CC[C@H]2C1(C)C (single isomer, unassigned): 0.9
CC1(C)CC[C@]2(C(=O)NCCCOCCOCCOCCCNC(=O)[C@]34CCC(C)(C)C[C@H]3C3=CC[C@@H]5[C@@]6(C)CC[C@H](O)C(C)(C)[C@@H]6CC[C@@]5(C)[C@]3(C)CC4)CC[C@]3(C)C(=CC[C@@H]4[C@@]5(C)CC[C@H](O)C(C)(C)[C@@H]5CC[C@]43C)[C@@H]2C1: 0.9
CC(=O)O[C@H]1CC[C@]2(C)[C@H]3CC=C4[C@@H]5CC(C)(C)CC[C@]5(C(=O)O)CC[C@@]4(C)[C@]3(C)CC[C@H]2C1(C)C: 1.6
CC1(C)CC[C@]2(C(=O)NCCCOCCOCCOCCCN)CC[C@]3(C)C(=CC[C@@H]4[C@@]5(C)CC[C@H](O)C(C)(C)[C@@H]5CC[C@]43C)[C@@H]2C1: 28.1
CC1(C)CC[C@]2(C(=O)OCc3ccccc3)CC[C@]3(C)C(=CC[C@@H]4[C@@]5(C)CC[C@H](O)C(C)(C)[C@@H]5CC[C@]43C)[C@@H]2C1: 2

Report Ratio IC50 for every entry below.
1. CC(=O)O[C@H]1CC[C@]2(C)[C@H]3CC=C4[C@@H]5CC(C)(C)CC[C@]5(C(=O)NCCCOCCOCCOCCCN)CC[C@@]4(C)[C@]3(C)CC[C@H]2C1(C)C
2. COCCOCCOCC(=O)O[C@H]1CC[C@]2(C)[C@H]3CC=C4[C@@H]5CC(C)(C)CC[C@]5(C(=O)OCc5ccccc5)CC[C@@]4(C)[C@]3(C)CC[C@H]2C1(C)C
3. COCCOCCOCC(=O)O[C@H]1CC[C@]2(C)[C@H]3CC=C4[C@@H]5CC(C)(C)CC[C@]5(C(=O)O)CC[C@@]4(C)[C@]3(C)CC[C@H]2C1(C)C

Out:
[0.5, 0.6, 6.2]

====

Test: Disruption of mitochondrial membrane potential in mouse B16F10 cells assessed as rhodamine123 positive cells at cytotoxic IC50 after 72 hrs by propidium iodide staining based fluorescence spectroscopic analysis (reference value: 95.6 +/- 0.57%)
Format: functional, B16-F10
Answer each item with its documented Activity.
One number for each entry, in %.

Report Activity for every entry below.
1. COCCOCCOCC(=O)O[C@H]1CC[C@]2(C)[C@H]3CC=C4[C@@H]5CC(C)(C)CC[C@]5(C(=O)O)CC[C@@]4(C)[C@]3(C)CC[C@H]2C1(C)C
2. COCCOCCOCC(=O)O[C@@H]1C[C@]2(C)[C@H]3CC=C4[C@@H]5CC(C)(C)CC[C@]5(C(=O)O)CC[C@@]4(C)[C@]3(C)CC[C@H]2C(C)(C)[C@H]1OC(=O)COCCOCCOC
3. CC1(C)CC[C@]2(C(=O)NCCCOCCOCCOCCCN)CC[C@]3(C)C(=CC[C@@H]4[C@@]5(C)CC[C@H](O)C(C)(C)[C@@H]5CC[C@]43C)[C@@H]2C1
4. COCCOCCOCC(=O)O[C@@H]1C[C@]2(C)[C@H]3CC=C4[C@@H]5CC(C)(C)CC[C@]5(C(=O)OCc5ccccc5)CC[C@@]4(C)[C@]3(C)CC[C@H]2C(C)(C)[C@H]1OC(=O)COCCOCCOC
5. CC1(C)CC[C@]2(C(=O)NCCCOCCOCCOCCCN)CC[C@]3(C)C(=CC[C@@H]4[C@@]5(C)C[C@@H](O)[C@H](O)C(C)(C)[C@@H]5CC[C@]43C)[C@@H]2C1

Out:
1. 79.45
2. 75.05
3. 20.75
4. 81.35
5. 48.05

====

System: HT-29
Experiment: Induction of apoptosis in human HT-29 cells assessed as early apoptotic cells at cytotoxic IC50 after 72 hrs by Annexin V-FITC/propidium iodide staining based flow cytometry (reference value: 1.65 +/- 0.07%)
Type: functional
Lab note: compare Activity with 30%, writing Criterion met if less and Criterion not met if equal or more.

Consider the following illustrative entries.
COCCOCCOCC(=O)O[C@H]1CC[C@]2(C)[C@H]3CC=C4[C@@H]5CC(C)(C)CC[C@]5(C(=O)O)CC[C@@]4(C)[C@]3(C)CC[C@H]2C1(C)C: Criterion not met
CC1(C)CC[C@]2(C(=O)NCCCOCCOCCOCCCN)CC[C@]3(C)C(=CC[C@@H]4[C@@]5(C)C[C@@H](O)[C@H](O)C(C)(C)[C@@H]5CC[C@]43C)[C@@H]2C1: Criterion not met
COCCOCCOCC(=O)O[C@@H]1C[C@]2(C)[C@H]3CC=C4[C@@H]5CC(C)(C)CC[C@]5(C(=O)O)CC[C@@]4(C)[C@]3(C)CC[C@H]2C(C)(C)[C@H]1OC(=O)COCCOCCOC: Criterion not met

In: Does the reported Activity of COCCOCCOCC(=O)O[C@@H]1C[C@]2(C)[C@H]3CC=C4[C@@H]5CC(C)(C)CC[C@]5(C(=O)OCc5ccccc5)CC[C@@]4(C)[C@]3(C)CC[C@H]2C(C)(C)[C@H]1OC(=O)COCCOCCOC stay below 30%?
Out: Criterion not met

In: Does the reported Activity of CC1(C)CC[C@]2(C(=O)NCCCOCCOCCOCCCN)CC[C@]3(C)C(=CC[C@@H]4[C@@]5(C)CC[C@H](O)C(C)(C)[C@@H]5CC[C@]43C)[C@@H]2C1 stay below 30%?
Out: Criterion met

====

Tested on: HT-29
Experiment: Cytotoxicity against human HT-29 cells assessed as growth inhibition after 72 hrs by MTT assay
Format: functional, cell-based
Conditions: HT-29, 72 h
pIC50: −log10 of the molar value.
Please note: rule met applies when pIC50 is 4 or greater, and rule not met applies otherwise.

COCCOCCOCC(=O)O[C@@H]1C[C@]2(C)[C@H]3CC=C4[C@@H]5CC(C)(C)CC[C@]5(C(=O)OCc5ccccc5)CC[C@@]4(C)[C@]3(C)CC[C@H]2C(C)(C)[C@H]1OC(=O)COCCOCCOC: rule met
CC(=O)O[C@H]1CC[C@]2(C)[C@H]3CC=C4[C@@H]5CC(C)(C)CC[C@]5(C(=O)O)CC[C@@]4(C)[C@]3(C)CC[C@H]2C1(C)C [ACETYL OLEANOLIC ACID]: rule not met
CC1(C)CC[C@]2(C(=O)NCCCOCCOCCOCCCN)CC[C@]3(C)C(=CC[C@@H]4[C@@]5(C)C[C@@H](O)[C@H](O)C(C)(C)[C@@H]5CC[C@]43C)[C@@H]2C1: rule met

Let us examine a further case.
In: Does COCCOCCOCC(=O)O[C@H]1CC[C@]2(C)[C@H]3CC=C4[C@@H]5CC(C)(C)CC[C@]5(C(=O)OCc5ccccc5)CC[C@@]4(C)[C@]3(C)CC[C@H]2C1(C)C have a reported pIC50 of at least 4?
Out: rule met

====

Tested on: HT-29
Experiment: Cytotoxicity against human HT-29 cells assessed as growth inhibition after 72 hrs by MTT assay
Type: functional, cell-based
Details: HT-29, 72 h
valueKind: pIC50
Give bare numbers, as −log10 of the molar value.

# example entries with known answers
CC1(C)CC[C@]2(C(=O)OCc3ccccc3)CC[C@]3(C)C(=CC[C@@H]4[C@@]5(C)C[C@@H](O)[C@H](O)C(C)(C)[C@@H]5CC[C@]43C)[C@@H]2C1 [BENZYL MASLINATE]: 4.82
CC(=O)O[C@@H]1C[C@]2(C)[C@H]3CC=C4[C@@H]5CC(C)(C)CC[C@]5(C(=O)NCCCOCCOCCOCCCNC(=O)[C@]56CCC(C)(C)C[C@H]5C5=CC[C@@H]7[C@@]8(C)C[C@@H](OC(C)=O)[C@H](OC(C)=O)C(C)(C)[C@@H]8CC[C@@]7(C)[C@]5(C)CC6)CC[C@@]4(C)[C@]3(C)CC[C@H]2C(C)(C)[C@H]1OC(C)=O: 4.19
COCCOCCOCC(=O)O[C@@H]1C[C@]2(C)[C@H]3CC=C4[C@@H]5CC(C)(C)CC[C@]5(C(=O)O)CC[C@@]4(C)[C@]3(C)CC[C@H]2C(C)(C)[C@H]1OC(=O)COCCOCCOC: 4.40

Kindly consider the entry below.
In: Requested field: pIC50. Item: CC1(C)CC[C@]2(C(=O)NCCCOCCOCCOCCCN)CC[C@]3(C)C(=CC[C@@H]4[C@@]5(C)CC[C@H](O)C(C)(C)[C@@H]5CC[C@]43C)[C@@H]2C1
Out: 5.45
